Test system: in vitro blood–brain barrier model (primary rat brain endothelial cells and pericytes on Transwell filters, glial-conditioned media)
Assay: Permeability assay through the in vitro BBB model
Format: in vitro ADME
Details: 10 µM in top compartment, 60 min, N = 2, relative to sodium-fluorescein
Entries whose Papp% (permeability coefficient compared to sodium-fluorescein) is below 200% take Condition met; entries at or above 200% take Condition not met.

Problem: Does the reported Papp% (permeability coefficient compared to sodium-fluorescein) of CN(C)CCNC(=O)c1nc2ccccc2c(O)c1CN1CCCCC1 stay below 200%?
Result: Condition met

Problem: Does the reported Papp% (permeability coefficient compared to sodium-fluorescein) of CN(C)CCNC(=O)c1nc2ccccc2c(O)c1CN1CCOCC1 stay below 200%?
Result: Condition not met

Problem: Does the reported Papp% (permeability coefficient compared to sodium-fluorescein) of CN(C)CCNC(=O)c1nc2ccccc2c(O)c1CN1CCCC1 stay below 200%?
Result: Condition not met

Problem: Does the reported Papp% (permeability coefficient compared to sodium-fluorescein) of O=C(NCCN1CCCC1)c1nc2ccccc2c(O)c1CN1CCCCC1 stay below 200%?
Result: Condition met

Problem: Does the reported Papp% (permeability coefficient compared to sodium-fluorescein) of O=C(NCCN1CCCC1)c1nc2ccccc2c(O)c1CN1CCOCC1 stay below 200%?
Result: Condition not met

Problem: Does the reported Papp% (permeability coefficient compared to sodium-fluorescein) of O=C(NCCN1CCCC1)c1nc2ccccc2c(O)c1CN1CCCC1 stay below 200%?
Result: Condition met

---

Tested on: in vitro blood–brain barrier model (primary rat brain endothelial cells and pericytes on Transwell filters, glial-conditioned media)
Assay: Permeability assay through the in vitro BBB model
Assay type: in vitro ADME
Details: 10 µM in top compartment, 30 min, N = 3, relative to KYNA
measurement label: Papp % (permeability coefficient compared to KYNA) (%)
Lab book: enter the figure in %, no units written.

[
  {
    "compound": "O=C(O)c1cc(=O)c2ccccc2[nH]1 [KYNA, kynurenic acid]",
    "units": "%",
    "endpoint value": 100
  },
  {
    "compound": "O=C(O)c1cc(O)c2cccc(O)c2n1 [xanthurenic acid]",
    "units": "%",
    "endpoint value": 110
  },
  {
    "compound": "O=C(O)c1[nH]c2c(O)cccc2c(=O)c1CN1CCOCC1 [39B]",
    "units": "%",
    "endpoint value": 54
  }
]

Problem: Any idea what its Papp % (permeability coefficient compared to KYNA) is? The compound is CN(C)CCNC(=O)c1nc2ccccc2c(O)c1CN1CCOCC1 [SZR-104]
Result: 210
